Give measured pest or weed control at 250 g/ha for each item. Keep answers brief.
- System: Sorghum vulgare Pers. (SORVU)
- Experiment notes: Test 2 glasshouse assay (IF50 formulation, X-77), pre-emergence herbicidal activity
- Assay type: in vivo
- Condition info: Sorghum bicolor, 480 h, 250 g/ha, 20DAA, read-out: Percentage phytotoxicity SORVU
Use % as the unit, but write only the number.

// field: pest or weed control at 250 g/ha; key: C#CCC1CC(=O)C(c2c(F)cc(-c3ccc(Cl)cc3)cc2Cl)C1=O (centres unmarked) ; value = 40

// field: pest or weed control at 250 g/ha; key: C#CCC1CC(=O)C(c2c(Cl)cc(-c3ccc(F)cc3)cc2OC)C1=O (centres unmarked) ; value = 90

// field: pest or weed control at 250 g/ha; key: C#CCC1CC(=O)C(c2c(F)cc(-c3ccc(F)c(F)c3)cc2OC)C1=O (centres unmarked) ; value = 70

// field: pest or weed control at 250 g/ha; key: C#CCC1CC(=O)C(c2c(C)cc(-c3ccc(Cl)cn3)cc2C)C1=O (centres unmarked) ; value = 80

// field: pest or weed control at 250 g/ha; key: C#CCC1CC(=O)C(c2c(Cl)cc(-c3ccc(Cl)cc3)cc2OC)C1=O (centres unmarked) ; value = 80

---

- Test system: Lolium perenne (LOLPE)
- Experiment notes: Test 2 glasshouse assay (IF50 formulation, X-77), pre-emergence herbicidal activity
- Format: in vivo
- Condition info: 480 h, 250 g/ha, 20DAA, read-out: Percentage phytotoxicity LOLPE
Give measured pest or weed control at 250 g/ha for each item. Keep answers brief.
Use % as the unit, but write only the number.

// field: pest or weed control at 250 g/ha; key: C#CCC1CC(=O)C(c2c(Cl)cc(-c3ccc(F)cc3F)cc2OC)C1=O (centres unmarked) ; value = 100

// field: pest or weed control at 250 g/ha; key: C#CCC1CC(=O)C(c2c(Cl)cc(-c3ccc(Cl)cc3)cc2OC)C1=O (centres unmarked) ; value = 60

// field: pest or weed control at 250 g/ha; key: C#CCC1CC(=O)C(c2c(C)cc(-c3ccc(Cl)cn3)cc2C)C1=O (centres unmarked) ; value = 80

// field: pest or weed control at 250 g/ha; key: C#CCC1CC(=O)C(c2c(Cl)cc(-c3ccc(F)cc3)cc2OC)C1=O (centres unmarked) ; value = 60

// field: pest or weed control at 250 g/ha; key: C#CCC1CC(=O)C(c2c(F)cc(-c3ccc(Cl)cc3)cc2Cl)C1=O (centres unmarked) ; value = 30

// field: pest or weed control at 250 g/ha; key: C#CCC1CC(=O)C(c2c(F)cc(-c3ccc(Cl)cc3)cc2OC)C1=O (centres unmarked) ; value = 70

// field: pest or weed control at 250 g/ha; key: C#CCC1CC(=O)C(c2c(F)cc(-c3ccc(F)c(F)c3)cc2OC)C1=O (centres unmarked) ; value = 20

// field: pest or weed control at 250 g/ha; key: C#CCC1CC(=O)C(c2c(Cl)cc(-c3ccc(Cl)cn3)cc2OC)C1=O (centres unmarked) ; value = 70

// field: pest or weed control at 250 g/ha; key: C#CCC1CC(=O)C(c2cc(-c3ccc(Cl)cc3Cl)ccc2C)C1=O (centres unmarked) ; value = 0

// field: pest or weed control at 250 g/ha; key: C#CCC1CC(=O)C(c2c(C)cc(-c3ncc(Cl)cc3F)cc2C)C1=O (centres unmarked) ; value = 80

// field: pest or weed control at 250 g/ha; key: C#CCC1CC(=O)C(c2c(CC)cc(C)cc2CC)C1=O (centres unmarked) ; value = 90

// field: pest or weed control at 250 g/ha; key: C#CCC1CC(=O)C(c2c(Cl)cc(-c3ccc(F)c(F)c3)cc2OC)C1=O (centres unmarked) ; value = 100

// field: pest or weed control at 250 g/ha; key: C#CCC1CC(=O)C(c2c(F)cc(-c3ccc(Cl)cn3)cc2Cl)C1=O (centres unmarked) ; value = 80

// field: pest or weed control at 250 g/ha; key: C#CCC1CC(=O)C(c2c(C)cc(C)cc2C)C1=O (centres unmarked) ; value = 100

---

Give measured plant injury at 250 g/ha for each item. Keep answers brief.
- Tested on: Triticum aestivum (TRZAW, winter wheat)
- Experiment notes: Test 1 glasshouse assay, post-emergence herbicidal activity
- Assay type: in vivo
- Condition info: 312 h, post-emergence (Example 1B Table 2), 250 g/ha, after 13 days, crop plant, read-out: Percentage phytotoxicity TRZAW
Use % as the unit, but write only the number.

// field: plant injury at 250 g/ha; key: C#CCC1CC(=O)C(c2c(Cl)cc(-c3ccc(F)cc3F)cc2OC)C1=O (centres unmarked) ; value = 80

// field: plant injury at 250 g/ha; key: C#CCC1CC(=O)C(c2c(C)cc(C)cc2C)C1=O (centres unmarked) ; value = 70

// field: plant injury at 250 g/ha; key: C#CCC1CC(=O)C(c2c(CC)cc(C)cc2CC)C1=O (centres unmarked) ; value = 60

// field: plant injury at 250 g/ha; key: C#CCC1CC(=O)C(c2c(F)cc(-c3ccc(Cl)cc3)cc2Cl)C1=O (centres unmarked) ; value = 80

// field: plant injury at 250 g/ha; key: C#CCC1CC(=O)C(c2c(Cl)cc(-c3ccc(F)c(F)c3)cc2OC)C1=O (centres unmarked) ; value = 80

// field: plant injury at 250 g/ha; key: C#CCC1CC(=O)C(c2c(C)cc(-c3ncc(Cl)cc3F)cc2C)C1=O (centres unmarked) ; value = 90

// field: plant injury at 250 g/ha; key: C#CCC1CC(=O)C(c2c(F)cc(-c3ccc(Cl)cc3)cc2OC)C1=O (centres unmarked) ; value = 70

// field: plant injury at 250 g/ha; key: C#CCC1CC(=O)C(c2c(C)cc(C#C)cc2C)C1=O (centres unmarked) ; value = 90

// field: plant injury at 250 g/ha; key: C#CCC1CC(=O)C(c2c(F)cc(-c3ccc(Cl)cn3)cc2Cl)C1=O (centres unmarked) ; value = 80

// field: plant injury at 250 g/ha; key: C#CCC1CC(=O)C(c2c(Br)cc(C)cc2Br)C1=O (centres unmarked) ; value = 10

// field: plant injury at 250 g/ha; key: C#CCC1CC(=O)C(c2c(Cl)cccc2Cl)C1=O (centres unmarked) ; value = 80

// field: plant injury at 250 g/ha; key: C#CCC1CC(=O)C(c2c(C)cc(-c3ccc(Cl)cn3)cc2C)C1=O (centres unmarked) ; value = 90

// field: plant injury at 250 g/ha; key: C#Cc1cc(C)c(C2C(=O)CC(CC#CC)C2=O)c(C)c1 (centres unmarked) ; value = 80

// field: plant injury at 250 g/ha; key: CC#CCC1CC(=O)C(c2c(C)cc(C)cc2C)C1=O (centres unmarked) ; value = 0

// field: plant injury at 250 g/ha; key: C#CCC1CC(=O)C(c2c(Cl)cc(-c3ccc(Cl)cn3)cc2OC)C1=O (centres unmarked) ; value = 90

// field: plant injury at 250 g/ha; key: C#CCC1CC(=O)C(c2c(C)cc(-c3ncc(Cl)cn3)cc2C)C1=O (centres unmarked) ; value = 90

// field: plant injury at 250 g/ha; key: C#CCC1C(=O)C(c2c(C)cc(C)cc2C)C(=O)C1CC#C (centres unmarked) ; value = 20

---

- Test system: Echinochloa crus-galli (ECHCG)
- Experiment notes: Test 1 glasshouse assay, post-emergence herbicidal activity
- Type: in vivo
- Condition info: 312 h, post-emergence (Example 1B Table 2), 62.5 g/ha, after 13 days, read-out: Percentage phytotoxicity ECHCG
Give measured pest or weed control at 62.5 g/ha for each item. Keep answers brief.

// field: pest or weed control at 62.5 g/ha; key: C#CCC1CC(=O)C(c2c(C)cc(C#C)cc2C)C1=O (stereo not shown) [Compound A27] ; value = 90%

// field: pest or weed control at 62.5 g/ha; key: C#Cc1cc(C)c(C2C(=O)CC(CC#CC)C2=O)c(C)c1 (stereo not shown) [Compound A28] ; value = 90%

// field: pest or weed control at 62.5 g/ha; key: C#CCC1CC(=O)C(c2c(Cl)cc(-c3ccc(F)c(F)c3)cc2OC)C1=O (stereo not shown) [Compound A13] ; value = 100%

// field: pest or weed control at 62.5 g/ha; key: C#CCC1CC(=O)C(c2c(C)cc(-c3ncc(Cl)cc3F)cc2C)C1=O (stereo not shown) [Compound A3] ; value = 100%

---

- Tested on: Echinochloa crus-galli (ECHCG)
- Experiment notes: Test 1 glasshouse assay, post-emergence herbicidal activity
- Type: in vivo
- Condition info: 312 h, post-emergence (Example 1B Table 1), 30 g/ha, after 13 days, read-out: Percentage phytotoxicity ECHCG
Give measured pest or weed control at 30 g/ha for each item. Keep answers brief.
Use % as the unit, but write only the number.

Summary: C#CCC1CC(=O)C(c2c(F)cc(-c3ccc(F)cc3F)cc2OC)C1=O (stereo not drawn) [Compound A21] , Echinochloa crus-galli (ECHCG), pest or weed control at 30 g/ha = 90

Summary: C#CCC1CC(=O)C(c2c(F)cc(-c3ccc(Cl)cn3)cc2Cl)C1=O (stereo not drawn) [Compound A8] , Echinochloa crus-galli (ECHCG), pest or weed control at 30 g/ha = 100

Summary: C#CCC1CC(=O)C(c2c(F)cc(-c3ccc(F)cc3)cc2Cl)C1=O (stereo not drawn) [Compound A4] , Echinochloa crus-galli (ECHCG), pest or weed control at 30 g/ha = 90

Summary: C#CCC1CC(=O)C(c2c(F)cc(-c3ccc(Cl)cc3)cc2Cl)C1=O (stereo not drawn) [Compound A6] , Echinochloa crus-galli (ECHCG), pest or weed control at 30 g/ha = 100

Summary: C#CCC1CC(=O)C(c2c(F)cc(-c3ccc(F)c(F)c3)cc2OC)C1=O (stereo not drawn) [Compound A22] , Echinochloa crus-galli (ECHCG), pest or weed control at 30 g/ha = 90

Summary: C#CCC1CC(=O)C(c2cc(-c3ncc(Cl)cn3)ccc2C)C1=O (stereo not drawn) [Compound A19] , Echinochloa crus-galli (ECHCG), pest or weed control at 30 g/ha = 70

Summary: C#CCC1CC(=O)C(c2c(Cl)cc(-c3ccc(F)cc3)cc2OC)C1=O (stereo not drawn) [Compound A7] , Echinochloa crus-galli (ECHCG), pest or weed control at 30 g/ha = 100

Summary: C#CCC1CC(=O)C(c2cc(-c3ccc(Cl)cc3)ccc2C)C1=O (stereo not drawn) [Compound A16] , Echinochloa crus-galli (ECHCG), pest or weed control at 30 g/ha = 40

Summary: C#CCC1CC(=O)C(c2c(Cl)cc(-c3ccc(Cl)cn3)cc2OC)C1=O (stereo not drawn) [Compound A10] , Echinochloa crus-galli (ECHCG), pest or weed control at 30 g/ha = 100
